Cited source for all entries: PubChem BioAssay (NCI)

Test system: NCI/ADR-RES ovarian
test-description: NCI tumour cell line growth inhibition, 48 h
Reported values of GI50 for individual entries

Below, each entry is followed by its recorded GI50 result.
| smiles-repr | GI50 |
| --- | --- |
| Cc1ccc2c(n1)C(=O)C(Cl)=C(Nc1cccc(C(C)C)c1)C2=O | 2.49 µM |
| CN1CCN(c2nc(-c3csc(-c4ccccc4)n3)cc3ccccc23)CC1 | 1.93 µM |
| COCCNc1ccc2ncc(C#Cc3cncc(C(=O)Nc4ccc(CN5CCN(C)CC5)c(C(F)(F)F)c4)c3)n2n1 | 1.89 µM |
| COc1cc2c3c(cc4c5c(ccc4c3c1OC)OCO5)N(CCN(C)C)C2=O | 0.0685 µM |

# returns recorded GI50 (system: NCI/ADR-RES ovarian) for C=C(C=O)[C@@H]1CC[C@]2(C)[C@H](CC=C3[C@H]4[C@@H](C)[C@H](C)CC[C@]4(C(=O)OC)CC[C@]32C)[C@@]1(C)CCC#N
1.95 µM
